- protocol-notes: Acid dissociation constant (pKa) of the acid
- measurement-conditions: dilute aqueous solution
reported-endpoint: pKa
Returns: the value as a bare number; no unit string appended.

Entry "CCCCC(=O)O" has what pKa? 4.6

Now the same for O=C(O)C(O)CO (stereo not drawn) 3.4

Now the same for CC(C)(O)C(=O)O [2-Hydroxyisobutyric acid] 4.37
